The reported measurements were obtained from ChEMBL document CHEMBL6078638.

# ASSAY DETAILS: AUC (0 to infinity) in ICR mouse at 10 mg/kg, po measured up to 8 hrs by LC-MA/MS-18 analysis
# Type: ADME, organism-based
# RUN CONDITIONS: in vivo
VALUE TYPE: AUC(0-inf) (ng·h/mL)
Respond with the bare value in ng·h/mL.

Prompt line: Field request: AUC(0-inf) | item: CC(C)N1CCC(Oc2ccc(-c3ccc4c(n3)C(=O)C(N)=CC4=O)cc2)CC1
Response line: 537

----------
# ASSAY DETAILS: Cmax in ICR mouse at 10 mg/kg, po measured up to 8 hrs by LC-MA/MS-18 analysis
# Assay type: ADME, organism-based
# RUN CONDITIONS: in vivo
VALUE TYPE: Cmax (ng/mL)
Respond with the bare value in ng/mL.

Prompt line: Field request: Cmax | item: CC(C)N1CCC(Oc2ccc(-c3ccc4c(n3)C(=O)C(N)=CC4=O)cc2)CC1
Response line: 656
